Please provide measured Liquid chromatography content (220 nM, %) for the entries that follow.
experiment: Illumination stability experiment (HPLC content); assay type: physicochemical; details: batch 2; 8 h; visible light 5000 ± 500 lx, ultraviolet light 250 μW/cm^2
Give bare numbers, in %.

INSERT INTO measurements (compound, recordedmeasurement) VALUES
  ('CC(C)c1c(O)cc(/C=C/c2cccc(F)n2)cc1O [Comparative Example 1, reference compound]', 85.98),
  ('CC(C)c1c(O)cc(/C=C/c2ccccc2F)c(F)c1O', 98.37),
  ('CC(C)c1c(O)cc(/C=C/c2cccc(F)n2)c(F)c1O', 87.83),
  ('CC(C)c1c(O)cc(/C=C/c2ccc(F)cc2)c(F)c1O', 98.80);

Would you mind listing Liquid chromatography content (220 nM, %) for each of the following compounds?
1. CC(C)c1c(O)cc(/C=C/c2ccc(F)cn2)c(F)c1O
2. CC(C)c1c(O)cc(/C=C/c2ncccc2F)c(F)c1O

[98.65, 95.84]

----------
test: Illumination stability experiment (HPLC content); format: physicochemical; conditions: batch 2; 72 h; visible light 5000 ± 500 lx, ultraviolet light 250 μW/cm^2
Would you please tag the item true (1) when its Liquid chromatography content (220 nM, %) is 90% or above, and false (0) when it is below?

INSERT INTO measurements (compound, labelclass) VALUES
  ('CC(C)c1c(O)cc(/C=C/c2cccc(F)n2)cc1O [Comparative Example 1, reference compound]', 'false (0)');

hey, is Liquid chromatography content (220 nM, %) for this one >= 90%? CC(C)c1c(O)cc(/C=C/c2ccc(F)cc2)c(F)c1O true (1)

Test whether the compound CC(C)c1c(O)cc(/C=C/c2ccccc2F)c(F)c1O records Liquid chromatography content (220 nM, %) of 90% or higher. true (1)

Quick check, Liquid chromatography content (220 nM, %) >= 90%? CC(C)c1c(O)cc(/C=C/c2cccc(F)n2)c(F)c1O false (0)

----------
target: AHR protein (Homo sapiens); construct: Human hepatoma cells HepG2-Lucia expressing AHR and luciferase; experiment: Luciferase reporter gene assay (AHR agonistic activity); details: HepG2-Lucia AHR cells, 24 h incubation; read-out: Luciferase-labeled human hepatoma cells (HepG2-Lucia) AHR agonist EC50
Sequence (P35869 11-848): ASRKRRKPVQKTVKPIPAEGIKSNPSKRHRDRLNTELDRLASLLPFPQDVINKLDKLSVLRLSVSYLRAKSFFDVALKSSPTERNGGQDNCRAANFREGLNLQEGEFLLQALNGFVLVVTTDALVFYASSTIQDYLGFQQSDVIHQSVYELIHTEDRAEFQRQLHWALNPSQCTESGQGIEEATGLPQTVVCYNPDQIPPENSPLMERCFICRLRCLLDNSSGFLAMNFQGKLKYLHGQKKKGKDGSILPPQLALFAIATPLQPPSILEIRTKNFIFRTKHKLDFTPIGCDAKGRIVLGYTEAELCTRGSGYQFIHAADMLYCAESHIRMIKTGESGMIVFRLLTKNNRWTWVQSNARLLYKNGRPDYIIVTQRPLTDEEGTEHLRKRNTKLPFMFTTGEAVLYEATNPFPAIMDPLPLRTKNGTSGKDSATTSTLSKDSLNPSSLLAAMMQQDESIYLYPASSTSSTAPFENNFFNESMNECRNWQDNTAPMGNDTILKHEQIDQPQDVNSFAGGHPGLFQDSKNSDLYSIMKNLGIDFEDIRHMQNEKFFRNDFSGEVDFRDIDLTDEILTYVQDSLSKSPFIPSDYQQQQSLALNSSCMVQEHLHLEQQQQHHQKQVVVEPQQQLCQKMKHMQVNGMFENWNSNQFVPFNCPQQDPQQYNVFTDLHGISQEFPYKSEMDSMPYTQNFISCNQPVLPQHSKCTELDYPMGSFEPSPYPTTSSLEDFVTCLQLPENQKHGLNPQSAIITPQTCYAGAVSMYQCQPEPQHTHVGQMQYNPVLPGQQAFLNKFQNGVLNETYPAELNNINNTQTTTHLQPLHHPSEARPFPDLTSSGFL
attributeMeasured: EC50 (nM)
Numbers only, in nM.

INSERT INTO results (molecule, targetorsystem, recordedmeasurement) VALUES
  ('CC(C)c1c(O)cc(/C=C/c2ncccc2Cl)c(F)c1O', 'AHR protein (Homo sapiens)', 13),
  ('CC(C)c1c(O)cc(/C=C/c2ccc(F)cc2)c(F)c1O', 'AHR protein (Homo sapiens)', 6),
  ('CC(C)c1c(O)cc(/C=C/c2ccccc2F)c(F)c1O', 'AHR protein (Homo sapiens)', 10),
  ('CC(C)c1c(O)cc(/C=C/c2ccncc2)c(F)c1O', 'AHR protein (Homo sapiens)', 66),
  ('CC(C)c1c(O)cc(/C=C/c2ncccc2F)c(F)c1O', 'AHR protein (Homo sapiens)', 30);

// batch mode: one EC50 value per listed entry
1. CC(C)c1c(O)cc(/C=C/c2ccc(F)cn2)c(F)c1O
2. Cc1c(/C=C/c2ccccc2)cc(O)c(C(C)C)c1O
3. CC(C)c1c(O)cc(/C=C/c2ccccc2)c(F)c1O
4. CC(C)c1c(O)cc(/C=C/c2ccccc2)c(Br)c1O
5. CC(C)c1c(O)cc(/C=C/c2cccc(F)n2)c(F)c1O
6. CC(C)c1c(O)cc(/C=C/c2ccccc2)c(Cl)c1O

1: 20; 2: 177; 3: 57; 4: 219; 5: 27; 6: 238
